// provenance: BindingDB's records for doi:10.1016/s0960-894x(98)00264-9

# pEC50 per record follows
assay_comment: Compound was evaluated for agonistic activity against mGluR4a alpha metabotropic receptor subtype in rat cortical slice model
pEC50: −log10 of the molar value.

Guide cases for pEC50, answers given:
Q: Entry O=C(O)C(NCc1ccccc1)c1cc(=O)[nH]o1 (stereo not drawn) has what pEC50?
Result: < 3.00

Q: Entry CCNC(C(=O)O)c1cc(=O)[nH]o1 (stereo not drawn) has what pEC50?
Result: < 3.00

Turning to the following compound.
Q: Entry CNC(C(=O)O)c1cc(=O)[nH]o1 (stereo not drawn) has what pEC50?
Result: < 3.00

###

assay_comment: Compound was evaluated for agonistic activity against mGluR2 alpha metabotropic receptor subtype in rat cortical slice model
# EC50 per record follows

Q: Entry CCNC(C(=O)O)c1cc(=O)[nH]o1 (stereo not drawn) has what EC50?
Result: > 1000 µM

More entries:
Q: Entry O=C(O)C(NCc1ccccc1)c1cc(=O)[nH]o1 (stereo not drawn) has what EC50?
Result: > 1000 µM

Q: Entry CNC(C(=O)O)c1cc(=O)[nH]o1 (stereo not drawn) has what EC50?
Result: > 1000 µM
